The reported numbers originate from patent US4981847A.

# study_target: guinea pig cerebral cortical CCK receptors (Cavia porcellus, UniProt H0VZC5)
# Sequence (H0VZC5 entry or part of it): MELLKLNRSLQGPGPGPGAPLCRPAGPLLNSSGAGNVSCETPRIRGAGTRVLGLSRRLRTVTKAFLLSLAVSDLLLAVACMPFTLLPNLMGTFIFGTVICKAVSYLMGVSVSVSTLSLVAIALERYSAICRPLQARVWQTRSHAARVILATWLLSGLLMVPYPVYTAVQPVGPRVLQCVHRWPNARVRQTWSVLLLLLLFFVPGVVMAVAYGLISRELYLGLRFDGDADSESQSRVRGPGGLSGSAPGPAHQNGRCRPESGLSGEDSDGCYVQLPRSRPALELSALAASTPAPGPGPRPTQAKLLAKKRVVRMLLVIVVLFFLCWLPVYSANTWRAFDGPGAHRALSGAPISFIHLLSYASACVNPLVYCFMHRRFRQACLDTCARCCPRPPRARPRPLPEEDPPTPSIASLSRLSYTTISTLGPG
recorded_endpoint: IC50 (nM)
Give the value in nM but do not write nM after it.

The reported IC50 value, guinea pig cerebral cortical CCK receptors (Cavia porcellus, UniProt H0VZC5), for `O=C(N[C@H]1N=C(c2ccccc2F)c2cccc3c2N(CC3)C1=O)c1cc2ccccc2[nH]1` reads 31

---

# study_target: UniProtKB P30551
# Sequence (P30551 whole entry): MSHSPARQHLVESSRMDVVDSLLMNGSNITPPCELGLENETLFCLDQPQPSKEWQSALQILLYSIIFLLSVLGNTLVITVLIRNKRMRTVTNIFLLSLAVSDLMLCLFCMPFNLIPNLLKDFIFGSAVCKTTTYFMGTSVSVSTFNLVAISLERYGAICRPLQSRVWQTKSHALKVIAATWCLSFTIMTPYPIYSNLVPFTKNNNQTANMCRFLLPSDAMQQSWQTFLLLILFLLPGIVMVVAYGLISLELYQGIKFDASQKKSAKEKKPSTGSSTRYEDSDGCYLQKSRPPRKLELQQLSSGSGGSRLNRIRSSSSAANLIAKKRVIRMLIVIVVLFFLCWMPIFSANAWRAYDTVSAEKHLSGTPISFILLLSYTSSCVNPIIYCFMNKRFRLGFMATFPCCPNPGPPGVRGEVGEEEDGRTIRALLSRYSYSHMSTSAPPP
recorded_endpoint: pIC50
On this scale, pIC50 is minus log10 of a concentration expressed in M (mol/L).

Field pIC50 (entry `O=C(N[C@H]1N=C(c2ccccc2F)c2cccc3c2N(CC3)C1=O)c1cc2ccccc2[nH]1` ) reads 9.17
